src = patent US20220267421A1

Item-by-item account of log10 of Kd
Molecular target: T1, human MSLN-His-Avi (human, UniProt Q13421 296-598, single biotin (BirA) in the biotinylated form)
T1 construct: Monomeric, made in HEK293-6E; Used both immobilised and in solution; also called hMSLN-His-Avi; biotinylated hMSLN-His-Avi
T1 sequence (Q13421 other isoform, or with tags, fused parts or gaps): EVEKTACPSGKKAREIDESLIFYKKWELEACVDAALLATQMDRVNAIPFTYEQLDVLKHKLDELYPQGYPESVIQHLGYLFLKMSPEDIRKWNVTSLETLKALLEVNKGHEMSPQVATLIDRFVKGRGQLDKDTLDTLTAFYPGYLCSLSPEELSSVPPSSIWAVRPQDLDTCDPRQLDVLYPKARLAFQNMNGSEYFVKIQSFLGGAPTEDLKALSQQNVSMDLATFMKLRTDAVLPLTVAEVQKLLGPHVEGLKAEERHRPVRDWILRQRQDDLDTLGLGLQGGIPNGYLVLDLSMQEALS
Experiment: SPR (Biacore), MSLN immobilised, mAb^2 injected
Measured Attribute: log10 of Kd (log10 of the value in nM)

Binder	log10 of Kd
FS22-053-008-AA/FS28-024-052 mAb^2 (bispecific antibody, human IgG1, kappa, L234A L235A, V domains shown, also called FS28-024-52) VH: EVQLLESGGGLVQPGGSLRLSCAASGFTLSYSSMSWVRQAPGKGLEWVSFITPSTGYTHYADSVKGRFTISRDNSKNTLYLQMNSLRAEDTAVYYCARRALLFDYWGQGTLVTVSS VL: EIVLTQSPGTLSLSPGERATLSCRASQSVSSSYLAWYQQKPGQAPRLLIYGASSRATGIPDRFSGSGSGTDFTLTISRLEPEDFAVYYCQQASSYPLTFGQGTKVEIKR	-0.44
FS22-053-008-AA/FS28-256 (bispecific antibody, human IgG1, kappa, L234A L235A, V domains shown) VH: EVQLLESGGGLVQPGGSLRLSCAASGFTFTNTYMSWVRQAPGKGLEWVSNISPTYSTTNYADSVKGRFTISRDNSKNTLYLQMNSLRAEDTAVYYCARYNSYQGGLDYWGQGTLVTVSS VL: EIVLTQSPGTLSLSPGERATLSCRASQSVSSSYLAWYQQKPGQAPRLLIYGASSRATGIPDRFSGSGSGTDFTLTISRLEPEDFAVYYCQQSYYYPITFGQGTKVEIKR	1.37
FS22-053-008-AA/FS28-256-021 mAb^2 (bispecific antibody, human IgG1, kappa, L234A L235A, V domains shown) VH: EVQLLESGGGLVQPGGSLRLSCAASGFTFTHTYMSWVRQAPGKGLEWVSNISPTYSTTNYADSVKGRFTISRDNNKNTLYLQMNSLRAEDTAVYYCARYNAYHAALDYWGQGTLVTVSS VL: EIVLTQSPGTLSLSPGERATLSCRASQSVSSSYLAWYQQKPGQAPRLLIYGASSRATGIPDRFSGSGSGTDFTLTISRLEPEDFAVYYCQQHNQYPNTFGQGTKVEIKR	0.52
FS22-053-008-AA/FS28-024-053 mAb^2 (bispecific antibody, human IgG1, kappa, L234A L235A, V domains shown, also called FS28-024-53) VH: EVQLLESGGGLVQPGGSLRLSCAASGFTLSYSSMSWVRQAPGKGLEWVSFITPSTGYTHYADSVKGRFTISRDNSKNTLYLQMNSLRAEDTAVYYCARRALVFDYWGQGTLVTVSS VL: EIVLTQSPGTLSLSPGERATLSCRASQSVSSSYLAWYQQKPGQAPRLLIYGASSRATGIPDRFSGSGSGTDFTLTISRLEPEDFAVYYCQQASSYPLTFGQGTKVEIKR	-0.05
FS22-053-008-AA/FS28-256-024 mAb^2 (bispecific antibody, human IgG1, kappa, L234A L235A, V domains shown) VH: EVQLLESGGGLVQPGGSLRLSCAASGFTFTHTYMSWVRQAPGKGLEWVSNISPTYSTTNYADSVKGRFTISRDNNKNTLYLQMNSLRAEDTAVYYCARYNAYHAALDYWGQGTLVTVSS VL: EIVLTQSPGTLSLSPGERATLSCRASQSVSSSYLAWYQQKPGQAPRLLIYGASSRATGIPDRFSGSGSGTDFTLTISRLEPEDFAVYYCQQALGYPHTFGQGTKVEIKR	0.83
FS22-053-008-AA/FS28-256-027 mAb^2 (bispecific antibody, human IgG1, kappa, L234A L235A, V domains shown) VH: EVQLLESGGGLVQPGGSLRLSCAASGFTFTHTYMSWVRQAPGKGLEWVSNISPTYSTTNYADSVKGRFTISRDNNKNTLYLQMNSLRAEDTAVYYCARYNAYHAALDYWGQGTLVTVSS VL: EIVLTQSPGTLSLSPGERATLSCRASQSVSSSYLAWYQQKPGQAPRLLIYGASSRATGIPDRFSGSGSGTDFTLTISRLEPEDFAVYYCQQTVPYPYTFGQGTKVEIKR	0.04
